Taken from a melting point compilation (Tetko et al.; mined from patent text by program, amines drawn as free bases though some values may be those of a salt).

Items are presented alongside their recorded melting point.

The examples below pair each entry with its known result.
1. CN1N=C(c2ccc(Cl)cc2)CC1=O | 189 °C
2. CCC1(c2cccc(O)c2)CCCCN(C)C1 (stereo unspecified) | 128 to 133 °C
3. Cc1nc2c(s1)C(=O)c1ccccc1C2=O | > 260 °C
4. N#Cc1ccc(-c2cc(-c3cc(C#N)ccc3Cl)on2)cc1 | 207 to 209 °C
5. CC(C)=CC(=O)NCC1Cc2ccc(-c3ccc(=O)[nH]n3)cc2C1 (stereo unspecified) | 204 to 205 °C

Here is the next item to consider.
Incoming: Read the entry CCOC(=O)N(N=C[N+](=O)[O-])c1ccc(C(=O)OC)c(S(=O)(=O)NC(C)(C)C)c1 and write its reported melting point.
Outgoing: 142 to 145 °C
